# Test system: MET
# method.description: MET biochemical kinase assay
# Design: species or system human; concentration or dose not given beside the values
Each record is given MET if its reported Met Kinase % Inhibition is strictly below 20%. Records at or above 20% are given NOT MET.

Exercise: Below 20% on Met Kinase % Inhibition? Entry Cc1c(Br)ccc2c1C(=Cc1cc(C(C)C)c(Oc3ccccc3)c(C(C)C)c1)C(=O)N2 [10732/C04]
Solution: NOT MET

Exercise: Say whether its Met Kinase % Inhibition is strictly beneath 20%. Entry: O=C1Nc2c(Br)cc(Br)cc2C1=Cc1c(F)cc(F)cc1F [10720/A02]
Solution: NOT MET

Exercise: Would you kindly verify if Met Kinase % Inhibition of COc1cc(OC)c(C=C2C(=O)Nc3ccc(S(=O)(=O)N4CCOCC4)cc32)c(OC)c1 [10719/F06] is strictly less than 20%?
Solution: MET

Exercise: Please determine if Cc1cc2occ(C=C3C(=O)Nc4c(Br)cc(Br)cc43)c(=O)c2cc1C [10731/A03] is below 20% in terms of Met Kinase % Inhibition.
Solution: NOT MET

Exercise: Answer whether the compound O=C1Nc2ccc(S(=O)(=O)N3CCOCC3)cc2C1=Cc1ccccc1O [10720/F05] has Met Kinase % Inhibition strictly less than 20%
Solution: NOT MET

Exercise: Given the entry O=C1Nc2ccc(S(=O)(=O)Nc3ccc(C(F)(F)F)cc3)cc2C1=Cc1cccc(Oc2ccccc2)c1 [10729/E06] , would its reported Met Kinase % Inhibition be below 20%?
Solution: MET

Exercise: Lab note: Met Kinase % Inhibition threshold 20%. Does this compound come in strictly under it? COc1ccc(O)c(C=C2C(=O)Nc3ccc(S(=O)(=O)Nc4ccc(C(F)(F)F)cc4)cc32)c1 [10720/E10]
Solution: NOT MET

Exercise: Here's an entry: CNS(=O)(=O)c1ccc2c(c1)C(=Cc1cc(OC)ccc1OC)C(=O)N2 [10728/D02] . Is its Met Kinase % Inhibition below 20%?
Solution: NOT MET

Exercise: A record lists COc1ccc2[nH]cc(C=C3C(=O)Nc4ccc(CCCl)cc43)c2c1 [10731/G09] . Is its Met Kinase % Inhibition below 20%?
Solution: MET

Exercise: Is Met Kinase % Inhibition strictly under 20% for the entry Cc1c(Br)ccc2c1C(=Cc1ccc([N+](=O)[O-])c(O)c1)C(=O)N2 [10724/C04] ?
Solution: NOT MET

Exercise: Dear reviewer, please state whether CNS(=O)(=O)c1ccc2c(c1)C(=Cc1cccs1)C(=O)N2 [10717/D03] has Met Kinase % Inhibition strictly beneath 20%.
Solution: MET

Exercise: Please check: Met Kinase % Inhibition for CC(C)(C)c1cc(C=C2C(=O)Nc3ccc(S(=O)(=O)Nc4ccc(C(F)(F)F)cc4)cc32)ccc1O [10721/E09] , strictly under 20% or not?
Solution: MET

Exercise: Problem: For the compound CNS(=O)(=O)c1ccc2c(c1)C(=Cc1ccc(C(C)(C)C)cc1)C(=O)N2 [10734/D10] , is Met Kinase % Inhibition under 20%?
Solution: NOT MET

Exercise: Quick check: Met Kinase % Inhibition of O=C1Nc2c(Br)cc(Br)cc2C1=Cc1ccc(O)c([N+](=O)[O-])c1 [10724/A03] under 20%?
Solution: NOT MET

Exercise: Answer whether the compound Cc1ccc(C=C2C(=O)Nc3ccc(Br)c(C)c32)s1 [10717/C07] has Met Kinase % Inhibition strictly less than 20%
Solution: MET

Exercise: Is Met Kinase % Inhibition of COc1ccc(Br)c(C=C2C(=O)Nc3ccc(Br)c(C)c32)c1O [10725/C03] strictly below 20%?
Solution: NOT MET

Exercise: Take the compound Cc1c(Br)ccc2c1C(=Cc1cccc(Oc3ccccc3)c1)C(=O)N2 [10729/C06] and say whether its Met Kinase % Inhibition is less than 20%.
Solution: MET

Exercise: Met Kinase % Inhibition under 20%? Item: COc1cc(C=C2C(=O)Nc3ccc(I)cc32)cc(OC)c1OC [10730/B04]
Solution: NOT MET

---

Give measured Fik Kinase %Inhibition for each item. Keep answers brief.
# study.target: FLK-1 receptor (Mus musculus)
# Construct: expressed in transfected cells; host or cells: NIH3T3 C7#3
# Sequence (P35918 20-1345): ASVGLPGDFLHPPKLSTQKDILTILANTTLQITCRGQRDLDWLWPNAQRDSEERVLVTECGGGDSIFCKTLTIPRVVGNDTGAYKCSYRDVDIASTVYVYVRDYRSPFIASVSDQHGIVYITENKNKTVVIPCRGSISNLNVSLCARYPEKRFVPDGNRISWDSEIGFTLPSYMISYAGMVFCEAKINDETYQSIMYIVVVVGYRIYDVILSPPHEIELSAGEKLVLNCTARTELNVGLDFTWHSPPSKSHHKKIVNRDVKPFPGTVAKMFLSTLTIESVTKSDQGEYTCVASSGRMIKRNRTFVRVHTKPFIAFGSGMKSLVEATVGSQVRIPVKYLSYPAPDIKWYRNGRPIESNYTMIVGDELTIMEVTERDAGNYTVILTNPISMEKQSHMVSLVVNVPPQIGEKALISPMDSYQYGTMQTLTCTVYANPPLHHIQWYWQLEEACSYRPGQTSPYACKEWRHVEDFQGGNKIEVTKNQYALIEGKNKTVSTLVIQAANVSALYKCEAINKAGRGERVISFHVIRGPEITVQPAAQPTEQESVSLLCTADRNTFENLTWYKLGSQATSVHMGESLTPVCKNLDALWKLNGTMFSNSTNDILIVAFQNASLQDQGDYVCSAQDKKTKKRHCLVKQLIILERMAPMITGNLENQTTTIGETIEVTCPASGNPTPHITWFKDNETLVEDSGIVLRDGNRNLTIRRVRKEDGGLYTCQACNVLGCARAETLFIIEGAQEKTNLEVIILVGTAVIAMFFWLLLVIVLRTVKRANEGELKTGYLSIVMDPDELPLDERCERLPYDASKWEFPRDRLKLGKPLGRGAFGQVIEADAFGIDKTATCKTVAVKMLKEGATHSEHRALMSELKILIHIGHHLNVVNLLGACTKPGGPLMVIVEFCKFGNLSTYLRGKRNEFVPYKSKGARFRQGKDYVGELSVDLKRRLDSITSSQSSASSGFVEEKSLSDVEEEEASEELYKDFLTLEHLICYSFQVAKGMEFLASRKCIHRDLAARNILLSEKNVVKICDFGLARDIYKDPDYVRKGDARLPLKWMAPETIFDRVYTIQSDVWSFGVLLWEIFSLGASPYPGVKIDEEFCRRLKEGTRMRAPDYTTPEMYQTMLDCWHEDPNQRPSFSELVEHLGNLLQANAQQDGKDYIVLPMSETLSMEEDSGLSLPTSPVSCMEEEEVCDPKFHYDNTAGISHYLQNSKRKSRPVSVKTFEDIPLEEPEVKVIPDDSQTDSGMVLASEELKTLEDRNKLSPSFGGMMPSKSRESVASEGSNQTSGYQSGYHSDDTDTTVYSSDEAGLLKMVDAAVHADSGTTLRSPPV
# method.description: FLK-1 ELISA (kinase activity of the FLK-1 receptor in FLK-1/NIH3T3 cells, VEGF stimulated)
# Type: cell-based
Enter your answer as a number in %; do not include the unit.

Exercise: Return Fik Kinase %Inhibition (reported value) for this compound: `COc1cc(C=C2C(=O)Nc3ccc(S(=O)(=O)N4CCOCC4)cc32)cc(OC)c1OC`
Solution: 18.3

Exercise: Read off the recorded Fik Kinase %Inhibition for `CNS(=O)(=O)c1ccc2c(c1)C(=Cc1ccc(OC)cc1O)C(=O)N2`
Solution: 50.4

Exercise: Supply Fik Kinase %Inhibition value. Item: `CNS(=O)(=O)c1ccc2c(c1)C(=Cc1cc(C(C)(C)C)c(OCc3ccccc3)c(C(C)(C)C)c1)C(=O)N2`
Solution: 16.5

Exercise: Supply Fik Kinase %Inhibition value. Item: `O=C1Nc2ccc(S(=O)(=O)Nc3ccc(C(F)(F)F)cc3)cc2C1=Cc1ccc(O)c([N+](=O)[O-])c1`
Solution: 10.6

---

# Tested on: MET
# method.description: MET biochemical kinase assay
# Design: species or system human; concentration or dose not given beside the values
Please go through the items and note down their Met Kinase % Inhibition.
Report the figure in % without appending any unit label.

Exercise: Determine from records and report Met Kinase % Inhibition for `CC(C)(C)c1cc(C=C2C(=O)Nc3ccc(CCCl)cc32)cc(C(C)(C)C)c1O`
Solution: -0.0

Exercise: Please give the documented Met Kinase % Inhibition of `Cc1[nH]c(C=C2C(=O)Nc3c(Br)cc(Br)cc32)c(Br)c1Br`
Solution: 64.8

Exercise: Return reported Met Kinase % Inhibition. Input compound: `N#Cc1cccc(C=C2C(=O)Nc3ccc(I)cc32)c1`
Solution: 90.7

Exercise: Read off the recorded Met Kinase % Inhibition for `CC(C)(C)c1cc(C=C2C(=O)Nc3ccc(S(=O)(=O)N4CCOCC4)cc32)cc(C(C)(C)C)c1OCc1ccccc1`
Solution: 65.1

Exercise: Identify measured Met Kinase % Inhibition associated with `CNS(=O)(=O)c1ccc2c(c1)C(=Cc1cc(C(C)C)c(OC)c(C(C)C)c1)C(=O)N2`
Solution: 24.9

Exercise: Please supply the value of reported Met Kinase % Inhibition for the item `O=C1Nc2ccc(I)cc2C1=Cc1coc2c(Br)cc(Br)cc2c1=O`
Solution: 70.6

Exercise: Identify Met Kinase % Inhibition associated with the compound `CCOC(=O)c1c(C)[nH]c(C=C2C(=O)Nc3ccc(Br)c(C)c32)c1C`
Solution: 29.6

Exercise: Report Met Kinase % Inhibition, nothing else, for this compound: `O=C1Nc2c(Br)cc(Br)cc2C1=Cc1ccc(Cl)c([N+](=O)[O-])c1`
Solution: 36.8

Exercise: For the compound C=C(C)C1CC=C(C=C2C(=O)Nc3ccc(CCCl)cc32)CC1 (stereo not drawn) , give its measured Met Kinase % Inhibition value.
Solution: 23.3

Exercise: Provide only the value of recorded Met Kinase % Inhibition for `N#Cc1cccc(C=C2C(=O)Nc3ccc(S(=O)(=O)Nc4ccc(C(F)(F)F)cc4)cc32)c1`
Solution: 27.0

Exercise: Specify reported Met Kinase % Inhibition for the compound shown: `O=C1Nc2c(Br)cc(Br)cc2C1=Cc1ncc[nH]1`
Solution: 58.7

Exercise: Please give measured Met Kinase % Inhibition of the following entry: `O=C1Nc2ccc(S(=O)(=O)N3CCOCC3)cc2C1=Cc1cc(Cl)ccc1O`
Solution: 76.5

Exercise: Quote Met Kinase % Inhibition reported for `COc1cccc(C=C2C(=O)Nc3ccc(CCCl)cc32)c1OC` please.
Solution: -0.8

Exercise: Indicate the recorded Met Kinase % Inhibition value for this compound: `Cc1c(Br)ccc2c1C(=Cc1cccn1-c1ccc(Cl)cc1)C(=O)N2`
Solution: 5.3

Exercise: Give the value of Met Kinase % Inhibition reported for the following: `COc1ccc(C=C2C(=O)Nc3ccc(Br)c(C)c32)cc1C(C)(C)C`
Solution: 18.5

Exercise: Quickly give me recorded Met Kinase % Inhibition for `Cc1cc(C=C2C(=O)Nc3ccc(S(=O)(=O)N4CCOCC4)cc32)oc1C`
Solution: 53.6

Exercise: Supply recorded Met Kinase % Inhibition for `Cc1c(Br)ccc2c1C(=Cc1sccc1Br)C(=O)N2` here.
Solution: 6.3

Exercise: Recall and state the measured Met Kinase % Inhibition for COC1CC(C=C2C(=O)Nc3ccc(CCCl)cc32)C(OC)O1 (stereo not drawn) .
Solution: 42.1

---

# study.target: UniProtKB P09619
# Sequence (P09619 33-1106, species assumed): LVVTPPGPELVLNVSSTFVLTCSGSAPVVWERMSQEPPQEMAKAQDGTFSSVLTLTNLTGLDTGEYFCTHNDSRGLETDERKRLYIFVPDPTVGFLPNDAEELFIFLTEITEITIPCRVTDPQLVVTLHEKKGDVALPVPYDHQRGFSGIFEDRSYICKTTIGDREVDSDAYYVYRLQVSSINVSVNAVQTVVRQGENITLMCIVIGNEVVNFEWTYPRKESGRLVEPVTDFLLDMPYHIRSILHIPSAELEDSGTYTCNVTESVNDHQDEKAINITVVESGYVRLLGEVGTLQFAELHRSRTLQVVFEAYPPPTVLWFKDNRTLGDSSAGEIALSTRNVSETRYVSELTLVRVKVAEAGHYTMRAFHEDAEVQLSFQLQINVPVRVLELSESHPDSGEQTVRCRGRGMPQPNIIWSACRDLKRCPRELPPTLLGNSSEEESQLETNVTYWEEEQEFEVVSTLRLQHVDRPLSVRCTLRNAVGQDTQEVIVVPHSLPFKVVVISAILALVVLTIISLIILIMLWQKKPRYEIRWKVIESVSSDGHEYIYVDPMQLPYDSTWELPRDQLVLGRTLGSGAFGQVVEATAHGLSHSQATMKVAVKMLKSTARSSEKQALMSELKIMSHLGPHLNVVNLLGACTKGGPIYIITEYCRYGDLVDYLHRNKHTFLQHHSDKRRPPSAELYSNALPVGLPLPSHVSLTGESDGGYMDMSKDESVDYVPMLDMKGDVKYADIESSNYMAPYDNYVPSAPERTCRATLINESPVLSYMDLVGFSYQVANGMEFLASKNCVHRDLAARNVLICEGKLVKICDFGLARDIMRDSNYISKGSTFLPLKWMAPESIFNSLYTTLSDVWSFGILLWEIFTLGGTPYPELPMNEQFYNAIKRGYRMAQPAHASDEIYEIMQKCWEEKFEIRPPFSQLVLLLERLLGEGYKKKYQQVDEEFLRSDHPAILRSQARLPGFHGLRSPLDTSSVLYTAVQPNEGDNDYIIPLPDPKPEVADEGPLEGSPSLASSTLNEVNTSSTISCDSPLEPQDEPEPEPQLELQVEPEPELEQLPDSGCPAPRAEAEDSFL
# method.description: PDGF-R ELISA
# Assay type: cell-based
recorded.endpoint: PDGF Kinase %Inhibition (%)
Give the value, in units of %, as a plain number.

Exercise: Fill: PDGF Kinase %Inhibition (UniProtKB P09619) for this molecule COc1c(I)cc(C=C2C(=O)Nc3ccc(S(=O)(=O)N4CCOCC4)cc32)cc1C(C)(C)C [10732/F11]
Solution: 77.5

Exercise: Report the value of PDGF Kinase %Inhibition obtained on UniProtKB P09619 for CNS(=O)(=O)c1ccc2c(c1)C(=Cc1cccn1-c1ccc(Cl)cc1)C(=O)N2 [10724/D09] .
Solution: 18.9

Exercise: Fill: PDGF Kinase %Inhibition (UniProtKB P09619) for this molecule O=C1Nc2ccc(S(=O)(=O)Nc3ccc(C(F)(F)F)cc3)cc2C1=Cc1cccc(C(F)(F)F)c1F [10728/E07]
Solution: 28.0

Exercise: Enter recorded PDGF Kinase %Inhibition with UniProtKB P09619 for C=C(C)C1CC=C(C=C2C(=O)Nc3ccc(S(=O)(=O)NC)cc32)CC1 (stereo not shown) [10731/D04] here.
Solution: 6.5
